Measured values drawn from PubChem BioAssay (NCATS) for this set.

Experiment: Quantitative highthroughput screen to assess conditional lethalithy of NOMO1 cells grown in RPMI1640 with untreated serum (RPMI+s) (AID 1963876); note: nearly all actives have a fitted effect of over 35% in size
Settings: NOMO1 AML cells in RPMI+serum, CellTiter-Glo viability, 48 h; series mostly up to 45.8 µM
Description: Assay Provider: Jason Cantor Ph.D. Department of Biochemistry University of Wisconsin-Madison, Madison, WI, USA Chemical screening studies have identified drug sensitivities across hundreds of cancer cell lines but most putative therapeutics fail to translate. […] Sets of conditional anticancer compounds spanned phases of clinical development and included non-oncology drugs were assessed. […] 6; Detection; Luminescence, Viewlux PerkinElmer. […]
Results filed as inconclusive are left out. Calls of active or inactive are those of the source. Calls come from the whole dose curve; as a rule, active = well fitted cell-killing curve with a large enough effect; inconclusive = small, poorly fitted or top-dose-only effect; inactive = flat fitted curve, though single readings scatter.
Classes used: y (active), n (inactive)

compound	categoryLabel
Cn1cnc([N+](=O)[O-])c1Sc1ncnc2nc[nH]c12	y
O=C(C[C@@H]1CC=CCCC(=O)O[C@H](c2ccccc2)CNC1=O)NCc1ccc(Cl)cc1	n
CCCCC(C=O)NC(=O)C(CC(C)C)NC(=O)OCc1ccccc1 (stereo not drawn)	n
CC1COC2(CCN(c3nc(=O)c4cc(C(F)(F)F)cc([N+](=O)[O-])c4s3)CC2)O1 (stereo not drawn)	n
CC[N+](CC)(CC)CCOc1cccc(OCC[N+](CC)(CC)CC)c1OCC[N+](CC)(CC)CC	n
OCCN1C[C@H](O)[C@@H](O)[C@H](O)[C@@H]1CO	y
CN[C@@H]1[C@@H](O)[C@@H](O[C@@H]2[C@@H](O)[C@H](O[C@H]3O[C@H](CN)[C@@H](O)[C@H](O)[C@@H]3O)[C@@H](N)C[C@@H]2NC(=O)[C@@H](O)CN)OC[C@]1(C)O	n
Cc1ccccc1C(=O)c1ccc(Nc2ccc(Br)cc2N)cc1Cl	n
COc1ccc(-c2ccc3cc(C(=O)O)ccc3c2)cc1C12CC3CC(CC(C3)C1)C2	n
Cc1cn2cc(C(=O)N(C)CCO)cc(N[C@@H]3CCOc4cccc(C)c43)c2n1	n
Clc1cccc(Cl)c1NC1=NCCN1	n
CCCCCCNC(=O)n1cc(F)c(=O)[nH]c1=O	n
COc1c(C)cnc(Cn2cnc3c(Cl)nc(N)nc32)c1C	y
Cc1nccn1CC1CCc2c(c3ccccc3n2C)C1=O (stereo not drawn)	n
C=CCn1c(=O)c2cnc(Nc3ccc(N4CCN(C)CC4)cc3)nc2n1-c1cccc(C(C)(C)O)n1	y
CC(C)c1cc(-c2n[nH]c(=O)n2-c2ccc3c(ccn3C)c2)c(O)cc1O	y
CC1(C)Cc2c(sc(NC(=S)NC(=O)c3ccccc3)c2C(=O)O)CO1	n
COC(=O)Nc1ccc(-c2nc(N3CCOCC3)c3cnn(C4CCN(Cc5cccnc5)CC4)c3n2)cc1	y
CC(=O)[C@H]1CC[C@H]2[C@@H]3CC=C4C[C@@H](O)CC[C@]4(C)[C@H]3CC[C@]12C	n
O=C(O)C1=NC(C(=O)O)CC(C=CN2c3cc(O)c(OC4OC(CO)C(O)C(O)C4O)cc3CC2C(=O)O)=C1 (stereo not drawn)	n
CN(CC=CC#CC(C)(C)C)Cc1cccc2ccccc12	n
Cc1nc2cnc3ccc(C#Cc4cccnc4)cc3c2n1-c1ccc(C(C)(C)C#N)cc1	y
Nc1ccccc1NC(=O)c1ccc(CNC(=O)OCc2cccnc2)cc1	y
NCC(=O)Nc1ccc(-n2nc(C(F)(F)F)cc2-c2ccc3c(ccc4ccccc43)c2)cc1	n
O=C(Nc1cccnc1)N1CCC(Cc2cccc(Oc3ccc(C(F)(F)F)cn3)c2)CC1	y
Cn1cc(-c2ccc3nnc(Sc4ccc5ncccc5c4)n3n2)cn1	n
CCn1cc(C(=O)O)c(=O)c2cc(F)c(N3CCNCC3)cc21	n
c1ccc([C@H]2CN3CCSC3=N2)cc1	n
NC(=O)c1cccnc1	n
Cc1cc2c(cc1C1(c3ccc(C(=O)O)cn3)CC1)C(C)(C)CCC2(C)C	n
CC[C@H](C)C(=O)O[C@H]1C[C@H](O)C=C2C=C[C@H](C)[C@H](CC[C@@H](O)C[C@@H](O)CC(=O)O)[C@H]21	n
Cc1cnc(Nc2ccc(N3CCN(C)CC3)cc2)nc1Nc1cccc(S(=O)(=O)NC(C)(C)C)c1	y
CC1(C)[C@H](O[C@H]2O[C@H](C(=O)O)[C@@H](O)[C@H](O)[C@H]2O[C@@H]2O[C@H](C(=O)O)[C@@H](O)[C@H](O)[C@H]2O)CC[C@@]2(C)[C@H]1CC[C@]1(C)[C@H]2C(=O)C=C2[C@H]3C[C@@](C)(C(=O)O)CC[C@]3(C)CC[C@]21C	n
c1ccc2c(Oc3nc(Nc4ccc(N5CCOCC5)cc4)c4ncn(C5CCCCC5)c4n3)cccc2c1	n
O=C(NCc1ccccc1)c1csc(Nc2ccncn2)n1	y
CCC(=O)N1CCN(c2ccc(-n3c(=O)ccc4cnc5ccc(-c6cnc7ccccc7c6)cc5c43)cc2C(F)(F)F)CC1	y
COc1ccc(C2CC(c3ccccc3)=NN2c2ccc(S(N)(=O)=O)cc2)cc1 (stereo not drawn)	y
COc1cc2nc(-c3ccc(N4CCN(C)CC4)cc3)nc(NCCN3CCOCC3)c2cc1OC	y
